For each of the binders below, state its ELISA signal.
- EXPERIMENTAL TARGET: T1, Recombinant Human DLL4 (delta-like protein 4) (human, UniProt Q9NR61 27-524)
- T1 construct: Bought recombinant protein (R&D Systems Cat#1506-D4/CF); also called rHuman DLL4; Delta-like 4
- PROCEDURE TEXT: ELISA, DLL4 coated on plate; Fab at 33.33 (head prints µM, text says nM)
Give bare numbers.

For each of the items listed, what is its ELISA signal?
1. Fab VH5-51_IGHD5-18*01>3_IGHJ4*01 G100K/G104T G24T/S28R/G35V (H:KT TRV) & V3-4_IGLJ1*01 V91L/S96P (L:LP) (Fab, V domains shown, Tested as a Fab made in E. coli; also called H:KT TRV & L:LP) VH: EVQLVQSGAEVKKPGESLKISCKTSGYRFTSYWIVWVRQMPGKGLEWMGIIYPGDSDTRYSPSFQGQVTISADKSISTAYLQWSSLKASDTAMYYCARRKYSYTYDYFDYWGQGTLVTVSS VL: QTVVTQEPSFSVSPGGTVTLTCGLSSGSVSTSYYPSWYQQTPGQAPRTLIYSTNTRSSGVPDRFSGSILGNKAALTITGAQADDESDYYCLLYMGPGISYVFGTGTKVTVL
2. Fab VH5-51_IGHD5-18*01>3_IGHJ4*01 G100K/G104T G24T/S28R/G35V (H:KT TRV) & V3-4_IGLJ1*01 V91L/S96P S52M (Fab, V domains shown, Tested as a Fab made in E. coli; also called H:KT TRV & L:LP S52M) VH: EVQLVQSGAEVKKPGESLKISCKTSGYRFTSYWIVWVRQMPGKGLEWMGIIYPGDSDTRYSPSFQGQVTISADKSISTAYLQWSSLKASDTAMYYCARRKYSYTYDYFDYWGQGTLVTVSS VL: QTVVTQEPSFSVSPGGTVTLTCGLSSGSVSTSYYPSWYQQTPGQAPRTLIYMTNTRSSGVPDRFSGSILGNKAALTITGAQADDESDYYCLLYMGPGISYVFGTGTKVTVL
3. Fab VH5-51_IGHD5-18*01>3_IGHJ4*01 G100K/G104T G24T/S28R/G35V (H:KT TRV) & V3-4_IGLJ1*01 (Fab, V domains shown, Tested as a Fab made in E. coli; also called H:KT TRV & L:wt; Wildtype (light chain)) VH: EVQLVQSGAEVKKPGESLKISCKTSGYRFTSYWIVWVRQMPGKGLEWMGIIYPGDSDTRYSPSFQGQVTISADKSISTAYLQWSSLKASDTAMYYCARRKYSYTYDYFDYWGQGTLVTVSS VL: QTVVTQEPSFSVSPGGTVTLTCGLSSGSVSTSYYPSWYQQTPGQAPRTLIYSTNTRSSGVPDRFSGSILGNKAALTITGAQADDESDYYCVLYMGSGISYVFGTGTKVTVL

Ans.
0.19
0.12
0.08

Qu. Using the record for Fab VH5-51_IGHD5-18*01>3_IGHJ4*01 G100K/G104T G24T/S28R/G35V (H:KT TRV) & V3-4_IGLJ1*01 V91L/S96P S52G (Fab, V domains shown, Tested as a Fab made in E. coli; also called H:KT TRV & L:LP S52G) VH: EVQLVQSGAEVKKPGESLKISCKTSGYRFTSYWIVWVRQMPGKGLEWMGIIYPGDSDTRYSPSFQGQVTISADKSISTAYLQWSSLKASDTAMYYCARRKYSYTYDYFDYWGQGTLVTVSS VL: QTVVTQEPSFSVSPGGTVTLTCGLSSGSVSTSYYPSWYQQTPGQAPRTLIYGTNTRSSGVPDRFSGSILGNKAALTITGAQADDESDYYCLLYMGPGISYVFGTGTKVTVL , state its measured ELISA signal.
Ans. 0.35
